Conditions: in DMSO, 333.17 K
parameterMeasured: solubility (mole fraction)
No unit in the answer, only the number.

response.value for O=S(=O)([O-])NC1CCCCC1.[Na+] (field: solubility (mole fraction)) = 0.0203

----------
Settings: in DMF, 293.17 K
parameterMeasured: solubility (mole fraction)
No unit in the answer, only the number.

response.value for O=S(=O)([O-])NC1CCCCC1.[Na+] (field: solubility (mole fraction)) = 0.000214

----------
Settings: in water, 283.13 K
parameterMeasured: solubility (mole fraction)
No unit in the answer, only the number.

response.value for O=S(=O)([O-])NC1CCCCC1.[Na+] (field: solubility (mole fraction)) = 0.0152
